Data credit: paper PMC6326523

study system: WRN helicase domain fragment (Homo sapiens)
Construct: GST (N); made in house
Sequence (Q14191 500-946): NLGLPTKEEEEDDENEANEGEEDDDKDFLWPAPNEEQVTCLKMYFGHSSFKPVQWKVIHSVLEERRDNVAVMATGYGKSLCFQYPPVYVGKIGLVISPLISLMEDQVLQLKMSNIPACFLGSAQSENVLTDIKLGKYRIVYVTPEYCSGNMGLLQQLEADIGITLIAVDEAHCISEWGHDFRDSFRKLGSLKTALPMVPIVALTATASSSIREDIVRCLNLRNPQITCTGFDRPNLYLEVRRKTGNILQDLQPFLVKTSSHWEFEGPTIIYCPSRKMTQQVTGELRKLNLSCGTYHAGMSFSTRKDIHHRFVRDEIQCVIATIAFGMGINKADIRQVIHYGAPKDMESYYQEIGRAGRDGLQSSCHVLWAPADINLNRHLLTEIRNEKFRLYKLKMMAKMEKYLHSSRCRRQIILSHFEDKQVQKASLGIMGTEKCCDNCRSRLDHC
experimental details: WRN-hel-f2 protocol qHTS confirmatory (15 compound confirmatory assay)
Assay type: biochemical
details: NA = Not Active
Under this convention, 1.0 denotes IC50 strictly below 10 µM and 0.0 denotes IC50 at or above 10 µM.

- molecule: "Cc1ccc(-c2csc(NS(=O)(=O)c3cccc(F)c3)n2)o1 [MLS002251300-02]"
  discrete label: 0.0
- molecule: "O=C(c1cccc(-n2cccc2)c1)N1CCN(S(=O)(=O)c2ccccc2)CC1 [MLS001139594-03]"
  discrete label: 1.0
- molecule: "CCc1ccc(NC(=O)c2ccc3c(O)c([S+](=O)([O-])c4ccc(Cl)cc4)c(=O)[nH]c3c2)cc1 [NCGC00123016-02]"
  discrete label: 0.0
- molecule: "Cc1ccc(N2CCN(c3cnn(-c4nc5ccccc5s4)c(=O)c3Cl)CC2C)cc1 (stereo not drawn) [NCGC00295201-02]"
  discrete label: 0.0
- molecule: "COc1ccc2nc(O)c(-c3noc(-c4ccccc4)n3)cc2c1 [NCGC00063279-02]"
  discrete label: 1.0
- molecule: "Cc1ccc(C(=O)Nc2nnc([S+](=O)([O-])N(C)Cc3ccco3)s2)cc1 [NCGC00120906-02]"
  discrete label: 1.0
- molecule: "Cc1ccc(-c2nc(SCc3ccc(Br)cc3)n3[nH]c(=O)cc3n2)cc1 [NCGC00129037-02]"
  discrete label: 0.0
- molecule: "COc1ccc2nc(O)c(-c3noc(-c4ccc(F)cc4)n3)cc2c1 [NCGC00029283-02]"
  discrete label: 1.0
- molecule: "CN(Cc1ccco1)[S+](=O)([O-])c1nnc(NC(=O)c2cccc(Cl)c2)s1 [NCGC00120928-02]"
  discrete label: 0.0
- molecule: "O=c1cc(N2CCNCC2)nc2sc(-c3ccncc3)nn12 [NCGC00183602-01]"
  discrete label: 1.0
- molecule: "CCOc1ccc(-c2nc(SCC(=O)Nc3ccc(C)c(C)c3)n3[nH]c(=O)cc3n2)cc1 [NCGC00128865-02]"
  discrete label: 1.0
- molecule: "COc1ccccc1Nc1ccc2c(O)cc(S(=O)(=O)O)cc2c1 [MLS002608028-02]"
  discrete label: 1.0
- molecule: "COC(=O)c1cc(NC(=O)c2ccc3c(c2)NC(=O)c2ccccc2S3)cc(C(=O)OC)c1 [NCGC00113056-02]"
  discrete label: 1.0
- molecule: "CC(C)(C)c1ccc(-c2nc(SCCCOc3ccccc3)n3[nH]c(=O)cc3n2)cc1 [NCGC00128735-02]"
  discrete label: 0.0
- molecule: "Cc1ccc(CN(C)C(=O)CCc2nc(O)c3c4c(sc3n2)CCCC4)o1 [MLS001160745-02]"
  discrete label: 0.0
